Read-out: Paternally Expressed 10 (PEG10), PEG10 (gene 23089)
Run description: LTEA_HepaRG_PEG10: Life Technologies and Expression Analysis (LTEA) Assay for Paternally Expressed 10 (PEG10) using HepaRG (AID 2283520);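 for AC50: differentiated HepaRG human liver cells in serum-free induction medium with 0.5% DMSO; PEG10 transcript by qRT-PCR normalised to ACTB GAPDH and POLR2A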
Experimental conditions: mRNA level, 48 h; actives raise or lower the signal
Calls of active or inactive are those of the source. Rule for the calls: active = hit-call score of the fitted dose curve at least 0.9, where 1 is the maximum; inactive = score below 0.9.
Assay endpoint: AC50

Worked cases, AC50 given:
                                   compound       val
0                                CCCCCCCC=O  inactive
1  COc1ccc2c(c1)c(CC(=O)O)c(C)n2C(=O)c1ccc(Cl)cc1  inactive
2              CCOC(=O)C(C)(C)Oc1ccc(Cl)cc1  inactive
3  CC1(C)CC(N=C=O)CC(C)(CN=C=O)C1 (stereo not given)  inactive

Shift focus to the following entry.
Incoming: Suppose we examine the compound `Nc1ccccc1N` ; what AC50 value has been reported?
Outgoing: 64.8 µM (active)

----------
Read-out: Heat shock 70 kDa protein 1 (HSPA1A), gene 3303
Run description: LTEA_HepaRG_HSPA1A: Life Technologies and Expression Analysis (LTEA) Assay for Heat shock 70 kDa protein 1 (HSPA1A) using HepaRG (AID 2283502)
Experimental conditions: mRNA level, 48 h; actives raise or lower the signal
Calls of active or inactive are those of the source. The calls were made as follows: active = hit-call score of the fitted dose curve at least 0.9, where 1 is the maximum; inactive = score below 0.9.
Please reply with one of these outcomes: active, inactive

Incoming: For `OC[C@@H](O)[C@@H](O)[C@H](O)[C@H](O)CO` , which call appears in the assay record?
Outgoing: inactive

Incoming: Please let me know the test result on file for `CC=Cc1ccc(O)c(OC)c1` .
Outgoing: inactive

Incoming: Assay result, entry `COC(=O)c1ccc(O)cc1` — outcome?
Outgoing: inactive

Incoming: Hi team, can someone confirm the assay call for `Nc1nc(N)c2nc(CNc3ccc(C(=O)N[C@@H](CCC(=O)O)C(=O)O)cc3)cnc2n1` ?
Outgoing: inactive

Incoming: Hello, I am checking results. What call was entered for `CCCCCCCC=O` ?
Outgoing: inactive

Incoming: Recorded test outcome, item `CCCCCCCCCCCCCCCCCC(=O)O`
Outgoing: inactive

Incoming: Fill in: this test's call for `CNCc1cc(F)ccc1Oc1ccc(Cl)c(Cl)c1` is ___
Outgoing: active

Incoming: Outcome? `Cc1cc(NC(=O)C(=O)O)cc(C)c1Oc1ccc(O)c2c1CCC2`
Outgoing: inactive

Incoming: Assay outcome for `NCC1(Cc2noc(=O)[nH]2)CCCCC1` : what was it?
Outgoing: inactive

Incoming: What call does the record list for `C=CCOC(=O)c1ccccc1C(=O)OCC=C` ?
Outgoing: inactive

Incoming: Test call, this molecule: `Cc1nc(C)nc(N2C[C@@H](C)N(c3ccnc([C@@H](C)O)n3)[C@@H](C)C2)n1`
Outgoing: inactive

Incoming: What did this assay record as the result for `CC1(C)NC(=O)NC1=O` ?
Outgoing: inactive

Incoming: Dear colleague, could you share the recorded outcome for `O=c1[nH]cc(F)c(=O)[nH]1` when you have a moment?
Outgoing: inactive

Incoming: In this assay, the call recorded for `Cc1ccc2ncccc2c1` was what?
Outgoing: inactive

Incoming: Recorded test outcome, item `Cc1oc(-c2ccccc2)nc1CCOc1cccc2c1ccn2CCC(=O)O`
Outgoing: inactive

Incoming: What is the recorded call for this molecule in the test? `NS(=O)(=O)c1cc2c(cc1Cl)NCNS2(=O)=O`
Outgoing: inactive

Incoming: Write down the call the test reported for this molecule. Item: `Cc1cccc(Nc2cc(Cl)nc(SCC(=O)O)n2)c1C`
Outgoing: inactive

Incoming: Recorded test outcome, item `C1CCC(SSC2CCCCC2)CC1`
Outgoing: inactive

Incoming: # outcome recorded in this test, key = `CCCCc1ccc2c(n1)[C@@H](c1ccc(OC)cc1C[C@H](C)C(=O)O)[C@H](C(=O)O)[C@H]2c1ccc2c(c1)OCO2`
Outgoing: inactive

Incoming: Per the assay record, what outcome was assigned to `CC(C)c1ccc(C(=O)N=C(N)N)cc1S(C)(=O)=O` ?
Outgoing: active

Incoming: Hey, what did the test say about COCCOC[C@H](CC1(C(=O)NC2CCC(C(=O)O)CC2)CCCC1)C(=O)Oc1ccc2c(c1)CCC2 (some centres undefined) ?
Outgoing: inactive

Incoming: # lookup: test call for `CNC(=O)[C@H]1O[C@@H](n2cnc3c(NCc4cc(Cl)ccc4OCc4cc(C)no4)ncnc32)[C@H](O)[C@@H]1N`
Outgoing: inactive

Incoming: # lookup: test call for `COc1cc(S(=O)(=O)O)c(C)cc1N=Nc1c(O)ccc2cc(S(=O)(=O)O)ccc12`
Outgoing: inactive

Incoming: Just curious, what result did `C[Si]1(C)O[Si](C)(C)O[Si](C)(C)O[Si](C)(C)O1` get here?
Outgoing: inactive

Source of measurements: PubChem BioAssay (EPA / NIEHS)
